Exercise: for every item that follows, state its recorded optical density.
target or test system: T1, biotinylated goat anti-human kappa light chain
T1 construct: positive control of the ELISA
protocol details: ELISA, positive control; also: test concentration or dose not given here
Answers are plain numbers, in OD.

# input optical density for 365_B10 (antibody, V domains shown, Group I) VH: EVQLLESGGGLVQPGGSLRLSCAASGFTFDDYSMHWVRQAPGKGLEWVASINYNSGYKGYADSVKGRFTISRDNSKNTLYLQMNSLRAEDTAVYYCARAANWHDTALDYWGQGTLVTVSS VL: DIQMTQSPSSLSASVGDRVTITCRASQSILRYLNWYQQKPGKAPKLLIYAATSRASGVPSRFSGSGSGTDFTLTISSLQPEDFATYYCQQSDNLPLTFGGGTKVEIK ?
# output 3.21

Record optical density for all entries; do not skip any.
1. 366_H04 (antibody, V domains shown, Group III) VH: EVQLLESGGGLVQPGGSLRLSCAASGFTFDSYGMNWVRQAPGKGLEWVSNINYNGGYKSYADSVKGRFTISRDNSKNTLYLQMNSLRAEDTAVYYCARGANWHDTHLDYWGQGTLVTVSS VL: DIQMTQSPSSLSASVGDRVTITCRASQSILTYLNWYQQKPGKAPKLLIYAATSRASGVPSRFSGSGSGTDFTLTISSLQPEDFATYYCQQSYSSPLTFGGGTKVEIK
2. 367_F10 (antibody, V domains shown, Group II) VH: EVQLLESGGGLVQPGGSLRLSCAASGFTFDSYGMNWVRQAPGKGLEWVSGINYNSGYTSYADSVKGRFTISRDNSKNTLYLQMNSLRAEDTAVYYCARAATWHDTHLDYWGQGTLVTVSS VL: DIQMTQSPSSLSASVGDRVTITCRASQSILTYLNWYQQKPGKAPKLLIYAATSRASGVPSRFSGSGSGTDFTLTISSLQPEDFATYYCQQSYDTPLTFGGGTKVEIK

# output
1: 3.52; 2: 3.42

Record optical density for all entries; do not skip any.
1. 368_G11 (antibody, V domains shown, Group II) VH: EVQLLESGGGLVQPGGSLRLSCAASGFTFDSYGMHWVRQAPGKGLEWVSGINYNSGYKSYADSVKGRFTISRDNSKNTLYLQMNSLRAEDTAVYYCARAATWHDTALDYWGQGTLVTVSS VL: DIQMTQSPSSLSASVGDRVTITCRASQSILTYLNWYQQKPGKAPKLLIYAATSRASGVPSRFSGSGSGTDFTLTISSLQPEDFATYYCQQSDNTPLTFGGGTKVEIK
2. 366_G06 (antibody, V domains shown, Group I) VH: EVQLLESGGGLVQPGGSLRLSCAASGFTFSSYGMHWVRQAPGKGLEWVASINYNGGYTGYADSVKGRFTISRDNSKNTLYLQMNSLRAEDTAVYYCARAANWHDTHLDYWGQGTLVTVSS VL: DIQMTQSPSSLSASVGDRVTITCRASQSIVSYVNWYQQKPGKAPKLVIYAATSRASGVPSRFSGSGSGTDFTLTISSLQPEDFATYYCQQSYDNPLTFGGGTKVEIK

# output
3.5
3.41

The reported numbers originate from patent US20210380703A1.
